# TEST_TARGET: UniProt:P21453
# Sequence (P21453 whole entry): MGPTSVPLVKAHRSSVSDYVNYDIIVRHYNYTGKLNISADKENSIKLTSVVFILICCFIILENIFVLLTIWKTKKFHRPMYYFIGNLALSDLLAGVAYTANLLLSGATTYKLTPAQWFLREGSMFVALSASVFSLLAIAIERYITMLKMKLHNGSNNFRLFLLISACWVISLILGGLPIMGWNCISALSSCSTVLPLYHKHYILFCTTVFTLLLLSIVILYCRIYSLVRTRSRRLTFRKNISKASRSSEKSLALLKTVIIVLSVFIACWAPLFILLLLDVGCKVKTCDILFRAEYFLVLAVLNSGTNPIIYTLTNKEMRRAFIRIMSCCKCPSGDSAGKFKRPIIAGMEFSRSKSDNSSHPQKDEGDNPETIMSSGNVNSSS
# ASSAY_TEXT: S1P receptor profiling, GTP[γ-35S] binding SPA, S1P1
# CONDITION_CONTEXT: GTP[γ-35S] binding to membrane protein of transfected CHO or RH7777 cells, SPA
OBSERVATION_TYPE: EC50 (nM)

These solved cases illustrate the format of a correct answer.
COMPOUND	RESULT_UNITS	EC50
COc1ccc(Br)cc1OCCCOc1ccc(CCC(N)(CO)COP(=O)(O)O)cc1 (centres unmarked)	nM	8.5
C[C@@](N)(CCc1ccc(OCCOc2ccccc2)cc1)COP(=O)(O)O	nM	8.6

1. C[C@@](N)(CCc1ccc(OCCOc2ccc(Cl)cc2)cc1)COP(=O)(O)O
2. COc1cc(CC[C@@](C)(N)COP(=O)(O)O)ccc1OCCOc1ccccc1
3. C[C@@](N)(CCc1ccc(OCCOc2cccc(F)c2F)cc1)COP(=O)(O)O
Hello, I need these entries ordered by EC50, highest reading first. Thanks! Reply with the labels, ordered as the question asks.
2, 3, 1
(2: 8 nM, 3: 5.5 nM, 1: 0.6 nM)

* * *

# TEST_TARGET: human S1P receptor EDG-8 (S1P5) (Homo sapiens, UniProt Q9H228)
# Sequence (Q9H228 whole entry): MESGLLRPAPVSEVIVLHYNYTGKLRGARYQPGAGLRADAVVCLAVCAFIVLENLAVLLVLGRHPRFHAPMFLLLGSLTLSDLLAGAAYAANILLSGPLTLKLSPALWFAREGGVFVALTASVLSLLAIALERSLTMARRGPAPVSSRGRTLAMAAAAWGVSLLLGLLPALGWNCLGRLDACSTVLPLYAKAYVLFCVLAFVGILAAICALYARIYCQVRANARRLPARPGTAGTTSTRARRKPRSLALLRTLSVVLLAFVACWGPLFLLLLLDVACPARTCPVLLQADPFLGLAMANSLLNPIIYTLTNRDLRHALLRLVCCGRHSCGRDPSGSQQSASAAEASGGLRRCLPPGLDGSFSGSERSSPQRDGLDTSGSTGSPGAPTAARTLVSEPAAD
# ASSAY_TEXT: S1P receptor profiling, GTP[γ-35S] binding SPA, S1P5
# CONDITION_CONTEXT: GTP[γ-35S] binding to membrane protein of transfected CHO or RH7777 cells, SPA
pEC50: −log10 of the molar value.
OBSERVATION_TYPE: pEC50

COMPOUND	MEASURED_VALUE
COc1ccc(Br)cc1OCCCOc1ccc(CCC(N)(CO)COP(=O)(O)O)cc1 (centres unmarked) [Example 56]	7.78
C[C@@](N)(CCc1ccc(OCCOc2ccccc2)cc1)COP(=O)(O)O [Example 38]	7.93
C[C@@](N)(CCc1ccc(OCCOc2cccc(F)c2F)cc1)COP(=O)(O)O [Example 42]	8.20

I. C[C@@](N)(CCc1ccc(OCCOc2ccc(Cl)cc2)cc1)COP(=O)(O)O [Example 36]
II. COc1cc(CC[C@@](C)(N)COP(=O)(O)O)ccc1OCCOc1ccccc1 [Example 43]
Could you point out whether the larger pEC50 belongs to I or to II ? # answer = label of selected item
II

* * *

# TEST_TARGET: human S1P receptor EDG-6 (S1P4) (Homo sapiens)
# Construct: expressed in transfected cells
# Sequence (O95977 whole entry): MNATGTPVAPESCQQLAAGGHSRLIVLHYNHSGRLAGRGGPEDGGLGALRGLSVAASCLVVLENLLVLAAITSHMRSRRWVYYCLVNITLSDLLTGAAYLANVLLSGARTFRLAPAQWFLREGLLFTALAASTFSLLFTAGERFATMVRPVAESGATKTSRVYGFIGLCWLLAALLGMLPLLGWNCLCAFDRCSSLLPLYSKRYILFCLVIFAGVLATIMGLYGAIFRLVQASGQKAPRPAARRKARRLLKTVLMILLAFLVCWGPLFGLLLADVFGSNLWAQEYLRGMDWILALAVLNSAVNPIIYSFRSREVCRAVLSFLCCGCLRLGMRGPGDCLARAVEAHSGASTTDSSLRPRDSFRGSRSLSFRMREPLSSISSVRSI
# ASSAY_TEXT: S1P receptor profiling, GTP[γ-35S] binding SPA, S1P4
# Assay type: biochemical
# CONDITION_CONTEXT: GTP[γ-35S] binding to membrane protein of transfected CHO or RH7777 cells, SPA
OBSERVATION_TYPE: EC50 (nM)

I. COc1ccc(Br)cc1OCCCOc1ccc(CCC(N)(CO)COP(=O)(O)O)cc1 (centres unmarked) [Example 56]
II. C[C@@](N)(CCc1ccc(OCCOc2cccc(F)c2F)cc1)COP(=O)(O)O [Example 42]
III. C[C@@](N)(CCc1ccc(OCCOc2ccccc2)cc1)COP(=O)(O)O [Example 38]
IV. COc1cc(CC[C@@](C)(N)COP(=O)(O)O)ccc1OCCOc1ccccc1 [Example 43]
Please give the order of these compounds when sorted by EC50, largest value leading. I would appreciate it if you listed the labels in the requested order.
IV, III, II, I

* * *

# TEST_TARGET: human S1P receptor EDG-8 (S1P5) (Homo sapiens, UniProt Q9H228)
# Construct: expressed in transfected cells
# ASSAY_TEXT: S1P receptor profiling, GTP[γ-35S] binding SPA, S1P5
# Assay type: biochemical
# CONDITION_CONTEXT: GTP[γ-35S] binding SPA
OBSERVATION_TYPE: S1P5 mode of action (Agon. = agonist)

COMPOUND	S1P5 mode of action (Agon. = agonist)
C[C@@](N)(CCc1ccc(OCCOc2ccc(Cl)cc2)cc1)COP(=O)(O)O [Example 36]	Agon.
COc1ccc(Br)cc1OCCCOc1ccc(CCC(N)(CO)COP(=O)(O)O)cc1 (centres unmarked) [Example 56]	Agon
C[C@@](N)(CCc1ccc(OCCOc2ccccc2)cc1)COP(=O)(O)O [Example 38]	Agon.
COc1cc(CC[C@@](C)(N)COP(=O)(O)O)ccc1OCCOc1ccccc1 [Example 43]	Agon.

Attention now turns to another entry.
Form field: reported S1P5 mode of action (Agon. = agonist) of C[C@@](N)(CCc1ccc(OCCOc2cccc(F)c2F)cc1)COP(=O)(O)O [Example 42]
Agon.

* * *

# TEST_TARGET: human S1P receptor EDG-3 (S1P3) (Homo sapiens, UniProt Q99500)
# Sequence (Q99500 whole entry): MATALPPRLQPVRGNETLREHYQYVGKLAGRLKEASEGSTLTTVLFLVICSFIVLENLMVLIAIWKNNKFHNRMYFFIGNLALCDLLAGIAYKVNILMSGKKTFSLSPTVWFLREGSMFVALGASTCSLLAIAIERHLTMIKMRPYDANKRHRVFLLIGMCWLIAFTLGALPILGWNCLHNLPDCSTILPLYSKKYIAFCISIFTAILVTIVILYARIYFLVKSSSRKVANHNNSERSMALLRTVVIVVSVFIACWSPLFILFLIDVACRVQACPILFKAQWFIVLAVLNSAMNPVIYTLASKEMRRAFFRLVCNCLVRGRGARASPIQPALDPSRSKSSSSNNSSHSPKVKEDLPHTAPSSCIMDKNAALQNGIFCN
# ASSAY_TEXT: S1P receptor profiling, GTP[γ-35S] binding SPA, S1P3
# CONDITION_CONTEXT: GTP[γ-35S] binding to membrane protein of transfected CHO or RH7777 cells, SPA
OBSERVATION_TYPE: EC50 (nM)

1. C[C@@](N)(CCc1ccc(OCCOc2ccc(Cl)cc2)cc1)COP(=O)(O)O
2. COc1cc(CC[C@@](C)(N)COP(=O)(O)O)ccc1OCCOc1ccccc1
Kindly identify which of 1 and 2 has the larger recorded EC50 value. Response format: the label of the selected entry.
2

* * *

# TEST_TARGET: human S1P receptor EDG-3 (S1P3) (Homo sapiens)
# ASSAY_TEXT: S1P receptor profiling, GTP[γ-35S] binding SPA, S1P3
# CONDITION_CONTEXT: GTP[γ-35S] binding to membrane protein of transfected CHO or RH7777 cells, SPA
pEC50: −log10 of the molar value.
OBSERVATION_TYPE: pEC50

// solved cases for pEC50 follow
COMPOUND	MEASURED_VALUE
C[C@@](N)(CCc1ccc(OCCOc2cccc(F)c2F)cc1)COP(=O)(O)O	< 6.00
C[C@@](N)(CCc1ccc(OCCOc2ccccc2)cc1)COP(=O)(O)O	< 6.00

Which pEC50 is reported for this compound? COc1ccc(Br)cc1OCCCOc1ccc(CCC(N)(CO)COP(=O)(O)O)cc1 (stereo not drawn)
< 5.00
